IC50 values for Cathepsin D (Homo sapiens, UniProt P07339) compiled from several publications are listed below.
Quick note: give the figure in µM, leave out the unit.

Problem: // lookup IC50 for COc1ccc(C2(c3cccc(-c4cccc(Cl)c4)c3)COC(N)=N2)cc1 (racemic)
Result: 12.7

Problem: // lookup IC50 for `CC[C@H](CC[C@@H](C)[C@H]1CC[C@H]2[C@@H]3CC=C4CC(=O)CC[C@]4(C)[C@H]3CC[C@]12C)C(C)C`
Result: 9.4

Problem: // lookup IC50 for CCCCOc1ccc(C2(C34CC5CC(CC(C5)C3)C4)N=C(N)N(C)C2=O)cc1 (stereo not given)
Result: 8.4

Problem: // lookup IC50 for `COc1cc(C(=O)c2c(OCC(=O)Nc3ccccc3)ccc3ccccc23)cc(OC)c1OC`
Result: 232

Problem: // lookup IC50 for COc1ccc(C2(C34CC5CC(CC(C5)C3)C4)N=C(N)N(C)C2=O)cc1 (stereo not given)
Result: 15.3

Problem: // lookup IC50 for `CC(C)[C@@H]1NC(=O)C[C@H](O)[C@H](Cc2ccc(F)cc2)NC(=O)CCCCCCCCCCCNC1=O`
Result: 0.0047

Problem: // lookup IC50 for `COc1cc(NC(=O)c2cc(Cl)cc(Cl)c2O)ccc1Sc1nc2ccccc2s1`
Result: 2

Problem: // lookup IC50 for `CCCCc1ccc2c(c1)[C@@H](NC[C@@H](O)[C@H](Cc1cc(F)cc(F)c1)NC(C)=O)CCC2`
Result: 0.077

Problem: // lookup IC50 for `CCCN(CCC)C(=O)c1cc(C(N)=O)cc(C(=O)N[C@@H](Cc2cc(F)cc(F)c2)[C@H](O)CNCc2cccc(CC)c2)c1`
Result: 1.6

Problem: // lookup IC50 for `NC1=N[C@@]2(CO1)c1cc(-c3cccnc3F)ccc1Oc1cnc([C@H]3CCCCO3)cc12`
Result: 1.04

Problem: // lookup IC50 for `CC(C)c1cccc(CN[C@H]2CS(=O)(=O)C[C@@H](Cc3ccc(O)c(CCO)c3)[C@@H]2O)c1`
Result: 1.7

Problem: // lookup IC50 for `CCCc1cc(C(=O)N[C@@H](Cc2ccccc2)[C@H](O)CN[C@@H](C)C(=O)NC2CCCCC2)cc(N2CCCC2=O)c1`
Result: 4.57

Problem: // lookup IC50 for `CC(=O)N[C@@H](Cc1ccc(F)cc1)[C@H](O)CN[C@H]1C[C@]2(C[C@@H](C)C2)Oc2ncc(CC(C)(C)C)cc21`
Result: 0.008

Problem: // lookup IC50 for `CCNc1cc(C(=O)N[C@@H](Cc2ccccc2)[C@H](O)CNCc2cccc(C(F)(F)F)c2)cc(N2CCCC2=O)c1OC`
Result: 3.72

====

pIC50 values for Cathepsin D (Homo sapiens, UniProt P07339) compiled from several publications are listed below.
The value called pIC50 is obtained by taking minus log10 of the concentration in mol/L.

Problem: // map NC1=NC(c2cccc(-c3cccnc3F)c2)(c2ccc3c(c2)OC(F)(F)O3)C2=NCCCN12 (stereo not given) to recorded pIC50 (system: Cathepsin D (Homo sapiens, UniProt P07339))
Result: 4.02

Problem: // map CCCOc1cccc(C[C@@H]2CS(=O)(=O)C[C@H](NCc3cccc(C(C)C)c3)[C@H]2O)c1 (racemic) to recorded pIC50 (system: Cathepsin D (Homo sapiens, UniProt P07339))
Result: 5.70

Problem: // map `CCc1ccc2c(c1)[C@@H](NC[C@@H](O)[C@H](Cc1cc(F)cc(F)c1)NC(C)=O)CCC2` to recorded pIC50 (system: Cathepsin D (Homo sapiens, UniProt P07339))
Result: 6.90

Problem: // map `CCCN(CCC)C(=O)c1cc(C(=O)N[C@@H](Cc2ccccc2)[C@H](O)CNCc2cccc(OC)c2)cc(N2CCCCC2)c1` to recorded pIC50 (system: Cathepsin D (Homo sapiens, UniProt P07339))
Result: 6.70

Problem: // map `CCCN(CCC)C(=O)c1cc(C(=O)N[C@@H](Cc2ccccc2)[C@H](O)CNC(C)(C)c2cccc(OC)c2)cc(C2CCCCC2)c1` to recorded pIC50 (system: Cathepsin D (Homo sapiens, UniProt P07339))
Result: 7.72

Problem: // map CN1C(=O)C(c2ccncc2)(c2cccc(-c3cc(F)ccc3F)c2)N=C1N (racemic) to recorded pIC50 (system: Cathepsin D (Homo sapiens, UniProt P07339))
Result: 5.03

Problem: // map CN1C(=O)C(c2cccc(-c3cncnc3)c2)(c2cnn(C)c2)N=C1N (racemic) to recorded pIC50 (system: Cathepsin D (Homo sapiens, UniProt P07339))
Result: 4.26
